assay: qHTS for Inhibitors of TGF-b; settings: HepG2 CAGA-GFP TGF-b/SMAD3 reporter, GFP fluorescence, 18 h, TGF-beta stimulated, 500 pg/mL final; series mostly up to 46.1 µM; note: nearly all actives have a fitted effect of over 65% in size
The campaign covered roughly 410,000 compounds. About 5,000 (1.2%) were called active. Inconclusive results (about 13%) are left out. Calls come from the whole dose curve; as a rule, active = well fitted inhibition curve with a large enough effect; inconclusive = small, poorly fitted or top-dose-only effect; inactive = no such curve, though single readings can be large or run the other way. This excerpt belongs to a sample that is enriched for actives.
Possible outcomes: Yes = active, No = inactive

{"columns": ["Compound", "Assigned label"],
 "data": [
  ["Cc1cccc(NC(=O)Cn2c(C(F)(F)F)nc3ccccc32)c1C", "No"],
  ["Cc1nn(-c2ccccc2)c(C)c1/C=N/NC(=O)CSc1nc2ccccc2c(=O)n1-c1ccccc1", "Yes"],
  ["CN1CCN(C2(CNC(=O)COc3ccc(C(C)(C)C)cc3)CCCCC2)CC1", "No"],
  ["CCn1cc(C(=O)N2CCN(c3cc(Cl)ccc3C)CC2)c(=O)c2cc(S(=O)(=O)N3CCCC3)ccc21", "No"],
  ["O=C(COc1ccc(Br)cc1F)NC1CCN(Cc2ccccc2)CC1", "No"],
  ["Cc1ccc(CN2CC(N3CCC(Cc4ccccc4)CC3)CS2(=O)=O)cc1 (stereo not drawn)", "Yes"],
  ["COc1cccc(N=C2SC(C(=O)Nc3cccc(Cl)c3)CC(=O)N2C)c1 (stereo not drawn)", "Yes"],
  ["COc1ccc(OCCn2cc(C(=O)C3CCCCC3)c3ccccc32)cc1", "No"],
  ["CC(C)(C)c1ccc(C(CC(=O)O)NS(=O)(=O)Cc2ccccc2)cc1 (stereo not drawn)", "No"],
  ["O=C(Nc1cc(C(F)(F)F)ccc1Cl)c1nc2ccccc2nc1N1CCCCC1", "No"],
  ["CCCC12CN3CC(CCC)(CN(C1)C3c1c[nH]c3ccc(OC)cc13)C2=O (stereo not drawn)", "No"],
  ["CCOc1ccc(N(CC)S(=O)(=O)N2CCCC(C(=O)Nc3ccc(C(C)=O)cc3)C2)cc1 (stereo not drawn)", "No"],
  ["COc1ccc(/C=C/c2nnc(NC(=O)C(C)C)s2)cc1", "No"],
  ["Cc1nc(SCC(=O)Nc2ccc(C(=O)O)cc2)n[nH]1", "No"],
  ["O=C(CC(NCc1cccnc1)C(=O)O)Nc1ccc(O)cc1 (stereo not drawn)", "No"],
  ["CCOc1ccc(NC(=O)C2CCN(S(=O)(=O)c3cc(-c4noc(C)n4)ccc3C)CC2)cc1", "No"],
  ["O=Cc1cn(CCOc2ccc(F)cc2)c2ccccc12", "Yes"],
  ["Cc1cccc(CN2CCN(C3CN(Cc4ccccc4)S(=O)(=O)C3)CC2)c1 (stereo not drawn)", "No"],
  ["CC1(C)CC(=O)C=C(NCCCNC2CCCCC2)C1", "No"],
  ["COC(=O)c1ccc(NC(=O)CSc2n[nH]c(-c3ccccc3)n2)cc1", "No"],
  ["CNCCCOc1cc2nc(N3CCCN(C)CC3)nc(NC3CCN(C)CC3)c2cc1OC", "No"],
  ["Cc1ccc(-n2c(SCC(=O)N/N=C/C=C/c3ccccc3[N+](=O)[O-])nc3ccccc3c2=O)cc1", "No"],
  ["Cc1ccc(NC(=O)CN2C(=O)CC(C)Sc3ccccc32)c(C)c1 (stereo not drawn)", "No"],
  ["Cc1ccc(C(=O)Nc2ccccc2F)cc1S(=O)(=O)N1CCOCC1", "No"],
  ["Cc1ccc(C)c(NC(CC(=O)c2ccccc2)C(=O)OCC(=O)c2cccs2)c1 (stereo not drawn)", "No"],
  ["O=C(NCc1ccccc1)c1ccc2c(c1)nc1n2CCCCC1", "No"],
  ["CCc1ccc(C2C(C(=O)Nc3ccccc3)=C(C)Nc3c(C(=O)Nc4ccc(C)cc4)cnn32)cc1 (stereo not drawn)", "No"],
  ["CCC(=O)N1c2ccccc2CC1C(=O)N1CCN(c2ccccc2F)CC1 (stereo not drawn)", "No"],
  ["CCCCCCCCNS(=O)(=O)CCNC1CCCCC1", "Yes"],
  ["O=C(CNS(=O)(=O)c1cccc(C(F)(F)F)c1)Nc1ccccc1F", "No"],
  ["COC(=O)c1nc(NC(=O)c2ccc(C(C)(C)C)cc2)n[nH]1", "No"],
  ["C/C(=N\\NC(=O)CSc1nc2ccccc2c(=O)n1-c1ccccc1C)c1cccs1", "No"],
  ["COc1ccc(N=C2SC(C(=O)Nc3ccc(F)cc3)CC(=O)N2C)cc1 (stereo not drawn)", "No"],
  ["C[N+]1(CC(=O)c2cccs2)CCOCC1", "No"],
  ["Cc1oc(-c2ccccc2F)nc1CN1CCC(C(=O)NCCc2ccc(Cl)cc2)CC1", "No"],
  ["O=C1c2ccccc2C(=O)N1CCOc1ccc(F)cc1", "No"],
  ["CCOc1ccc(N(CC)S(=O)(=O)N2CCCC(C(=O)NCc3ccc(Cl)cc3)C2)cc1 (stereo not drawn)", "Yes"],
  ["COC(=O)N/N=C/c1cn(CCCOc2ccc(C)cc2)c2ccccc12", "Yes"],
  ["Cc1ccc(CN2CCc3nc(N4CCN(C)CC4)ncc3C2)cc1", "No"],
  ["O=C(NCc1ccc(F)cc1)c1ccc2nc(N3CCCCC3)sc2c1", "No"],
  ["O=S(=O)(c1ccc(C2CCCCC2)cc1)N1CCN(c2ccc(Cl)c(Cl)c2)CC1", "No"],
  ["COc1cccc(-c2cccc(NC(=O)C3CCN(C4CCC4)CC3)c2)c1", "No"],
  ["CCOC(=O)c1c(C)[nH]c(C)c1S(=O)(=O)NCC(=O)NCc1cccc(C)c1", "No"]
]}

====

test: qHTS for Inhibitors of TGF-b; details: HepG2 CAGA-GFP TGF-b/SMAD3 reporter, GFP fluorescence, 18 h, TGF-beta stimulated, 500 pg/mL final; series mostly up to 46.1 µM; note: nearly all actives have a fitted effect of over 65% in size
Out of some 410,000 compounds screened, about 5,000 (1.2%) were called active. Not shown: some 13% with an inconclusive outcome. The call rests on the fitted dose curve; in most records, active means well fitted inhibition curve with a large enough effect; inconclusive means small, poorly fitted or top-dose-only effect; inactive means no such curve, though single readings can be large or run the other way. The sample as a whole holds a higher share of actives than the screen did.
Outcomes: active, inactive

{"columns": ["Compound", "Assigned label"],
 "data": [
  ["CCOc1n[nH]c(-c2ccccc2)n1", "inactive"],
  ["CCN(CC)S(=O)(=O)c1cc(C(=O)Nc2cc(S(=O)(=O)N3CCOCC3)ccc2N2CCCC2)ccc1F", "inactive"],
  ["Cc1ccc(S(=O)(=O)N/N=C(\\c2ccccc2)C2CC2)cc1", "inactive"],
  ["CCOC(=O)c1ccccc1NC(=O)c1sc2nc(-c3ccc(F)cc3)cn2c1C", "inactive"],
  ["COc1ccc(-c2nc(CN3CCC(C(=O)NCc4ccccc4)CC3)c(C)o2)cc1OC", "inactive"],
  ["Cn1c(N)c(C(=O)COC(=O)/C=C/c2cccc(C(F)(F)F)c2)c(=O)n(C)c1=O", "inactive"],
  ["Cc1ccc(S(=O)(=O)/N=S(\\C)C(C)C)cc1 (stereo not given)", "inactive"],
  ["Cc1ccc2oc3c(c(=O)c2c1)C(c1ccc([N+](=O)[O-])cc1)N(CCCN1CCOCC1)C3=O (stereo not given)", "inactive"],
  ["CC(=O)c1cccc(-c2cnc3c(NC=O)cc(-c4ccc(N(C)C)cc4)cn23)c1", "active"],
  ["CC(C)(C)c1ccc(C(=O)N2CCC(c3nc(-c4ccc(S(=O)(=O)N5CCCC5)cc4)no3)CC2)cc1", "inactive"],
  ["Cc1ccc(-c2nc(CSCC(=O)NC3CCN(Cc4ccccc4)CC3)c(C)o2)cc1", "active"],
  ["COc1ccc(C(=O)NCc2ccc(C)cc2)cc1S(=O)(=O)N1CCCC1", "inactive"],
  ["COc1ccc(C2NC(=O)N(C)C3=C2C(=O)N(c2ccc(C(=O)O)cc2)C3)cc1 (stereo not given)", "inactive"],
  ["CC(=O)c1ccc(N2CCN(C3C(=O)c4ccccc4N3C(C)=O)CC2)cc1 (stereo not given)", "inactive"],
  ["Cc1ccc(-c2nnc(Nc3cccc(Br)c3)c3ccccc23)cc1S(=O)(=O)NCC1CCCO1 (stereo not given)", "inactive"],
  ["Cc1cccc(NS(=O)(=O)c2ccc(-c3cnc(C4CC4)o3)cc2)c1", "active"],
  ["CC(=O)c1ccc(-c2cnc3c(NC=O)cc(-c4cccc(NS(C)(=O)=O)c4)cn23)cc1", "active"],
  ["CCN(CC)S(=O)(=O)c1ccc(N2CCOCC2)c(NC(=O)c2ccc(=O)n(C)n2)c1", "inactive"],
  ["Cc1cccc(-c2nnc(SC(C)C(=O)Nc3ccccc3)n2C)c1 (stereo not given)", "inactive"],
  ["COc1ccc(C)cc1S(=O)(=O)N1CCN(S(=O)(=O)c2cc(C(=O)O)ccc2C)CC1", "active"]
]}

====

experiment: qHTS for Inhibitors of TGF-b; settings: HepG2 CAGA-GFP TGF-b/SMAD3 reporter, GFP fluorescence, 18 h, TGF-beta stimulated, 500 pg/mL final; series mostly up to 46.1 µM; note: nearly all actives have a fitted effect of over 65% in size
Out of some 410,000 compounds screened, about 5,000 (1.2%) were called active. Not shown: some 13% with an inconclusive outcome. Calls come from the whole dose curve; as a rule, active = well fitted inhibition curve with a large enough effect; inconclusive = small, poorly fitted or top-dose-only effect; inactive = no such curve, though single readings can be large or run the other way. Only a selection was taken, and actives are over-represented in it overall.
Possible outcomes: active, inactive

{"columns": ["Compound", "Assigned label"],
 "data": [
  ["COc1ccc(C(C(=O)NC2CCCCC2)N(C(=O)CCl)c2ccccc2Cl)cc1 (stereo not given)", "inactive"],
  ["Cn1c(=O)c2c(SCC(=O)NCC3CCCO3)nc(-c3ccccc3F)nc2n(C)c1=O (stereo not given)", "inactive"],
  ["COc1ccc(CCNC(=O)CN(c2ccccc2)S(C)(=O)=O)cc1OC", "inactive"],
  ["CCN(CC)/[N+]([O-])=N/OCOC(=O)Cc1c(C)n(C(=O)c2ccc(Cl)cc2)c2ccc(OC)cc12", "inactive"],
  ["Cc1ccccc1S(=O)(=O)N1[C@@H](c2cccc(Cl)c2)C(C(=O)OC(C)(C)C)=CC[C@H]1c1ccc(Cl)cc1", "inactive"],
  ["Oc1c(C(c2ccccn2)N2CCOCC2)ccc2cccnc12 (stereo not given)", "active"],
  ["O=S(=O)(NCCS(=O)(=O)N1CCN(c2ccccc2)CC1)c1ccc(Cl)cc1", "inactive"],
  ["CN(Cc1ccccc1)C(=O)CCS(=O)(=O)c1cc(Br)cc2c1N(C(=O)C1CC1)CC2", "inactive"],
  ["COc1ccccc1-n1nnnc1SCC(=O)NC(=O)Cc1ccccc1", "inactive"],
  ["Cc1nc2sc(C)c(C)n2c(=O)c1S(=O)(=O)NCCc1ccc(Cl)cc1", "inactive"],
  ["O=C(Cn1nc(Cc2cccnc2)c2ccccc2c1=O)NCC1CCCO1 (stereo not given)", "inactive"],
  ["Cc1ccnc(NC(=O)C2CCN(S(=O)(=O)c3c(C)c(C)cc(C)c3C)CC2)c1", "active"],
  ["Cc1ccc(Cl)cc1N(C)C(=O)Cn1nc(Cc2cccnc2)c2ccccc2c1=O", "active"],
  ["Nc1ccccc1N", "inactive"],
  ["O=C(Cn1nc(Cc2cccnc2)c2ccccc2c1=O)NCC1COc2ccccc2O1 (stereo not given)", "inactive"],
  ["COc1cc(OC)c(OC)cc1/C=C1\\C=Cc2ccccc21", "inactive"],
  ["Cc1cccc(NC(=O)C2CCN(S(=O)(=O)c3cccc4cccnc34)CC2)c1", "inactive"],
  ["Cc1ccc(S(=O)(=O)N2[C@@H](c3cccc(Cl)c3)C(C(=O)O)=CC[C@H]2c2ccc(Cl)c(Cl)c2)cc1", "active"],
  ["COc1ccc(C(CCN(Cc2ccc(OC)c(OC)c2)C(=O)CCl)c2ccccc2)cc1 (stereo not given)", "active"],
  ["CCOC(=O)C1=CC[C@@H](c2ccccc2)N(S(=O)(=O)c2ccc(C)cc2)[C@H]1c1cccc(OC)c1", "inactive"]
]}

meta.source: PubChem BioAssay AID588855
